- PROCEDURE_SUMMARY: plasma pharmacokinetics after oral and intravenous administration
- Assay type: in vivo, Sprague-Dawley (SD) rats
- CONDITION_DETAILS: both, Sprague-Dawley, rat
MEASURED_ENDPOINT: half-life

Record Cl.Cl.O=C(CCN1CCCCC1)c1ccc(-c2ccc(C(=O)CCN3CCCCC3)cc2)cc1 . Reported half-life: 6.05 to 8.23 h

====

- PROCEDURE_SUMMARY: plasma pharmacokinetics after oral and intravenous administration
- Format: in vivo, Sprague-Dawley (SD) rats
- CONDITION_DETAILS: both, Sprague-Dawley, rat, 50 mg/kg
MEASURED_ENDPOINT: AUC(0-t)
Answer with the figure and its unit, nothing else.

Record Cl.Cl.O=C(CCN1CCCCC1)c1ccc(-c2ccc(C(=O)CCN3CCCCC3)cc2)cc1 . Reported AUC(0-t): 239 ng·h/mL
